The molecules below each have a reported Ki tested on Thyroid hormone receptor alpha (Homo sapiens, UniProt P10827); the values come from various publications.
Sequence (P10827 whole entry): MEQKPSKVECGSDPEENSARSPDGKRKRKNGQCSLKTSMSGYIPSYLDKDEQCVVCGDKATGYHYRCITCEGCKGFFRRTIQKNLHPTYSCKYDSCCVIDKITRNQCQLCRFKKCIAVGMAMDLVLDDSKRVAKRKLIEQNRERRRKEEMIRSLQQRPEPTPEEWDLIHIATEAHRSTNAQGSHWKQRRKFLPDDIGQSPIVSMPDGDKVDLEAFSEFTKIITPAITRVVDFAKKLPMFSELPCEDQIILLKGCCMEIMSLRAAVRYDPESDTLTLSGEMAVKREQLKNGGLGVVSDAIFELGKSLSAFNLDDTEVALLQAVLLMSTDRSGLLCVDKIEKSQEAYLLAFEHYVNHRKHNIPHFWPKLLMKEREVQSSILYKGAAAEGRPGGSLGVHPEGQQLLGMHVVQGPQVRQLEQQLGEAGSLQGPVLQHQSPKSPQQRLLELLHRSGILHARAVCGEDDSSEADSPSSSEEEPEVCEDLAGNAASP

Cc1cc(NC(=O)CC(=O)O)c2c(c1Oc1ccc(O)c(CC(C)C)c1)CCC2; 1430 nM
C#C[C@]1(O)CC[C@H]2[C@@H]3CCC4=CC(=O)CCC4=C3[C@@H](c3ccc(N(C)CCNC(=O)N(C)C4CC[C@@]5(C)[C@@H](C4)C[C@@H](O)[C@@H]4[C@@H]5C[C@H](O)[C@]5(C)[C@@H]([C@H](C)CCC(=O)O)CC[C@@H]45)cc3)C[C@@]21C (some centres undefined); > 1250 nM
CCOC(=O)C(=O)Nc1cc(C)c(Oc2ccc(O)c(C(O)c3ccc(F)cc3)c2)c(C)c1 (centres undefined); 40 nM

Give reported Ki value for COc1cc(OCP(=O)(O)O)cc(OC)c1Cc1ccc(O)c(C(C)C)c1
3300 nM
